Source listed as paper PMC10817945.

Test protocol: in vitro
Experimental context: human
Non-standard residues stand in square brackets, D forms with d. Residues, ends and D or L forms follow the SMILES beside them.
# hemolysis at 1 h, 100 µM per entry
Recorded metric: hemolysis at 1 h, 100 µM (%)

* CC(C)C[C@@H](NC(=O)[C@H](N)CCCCN)C(=O)N[C@H](CCCCN)C(=O)N[C@H](CC(C)C)C(=O)N[C@H](CC(C)C)C(=O)N[C@H](CC(C)C)C(=O)N[C@H](CC(C)C)C(=O)N[C@H](CC(C)C)C(=O)N[C@H](CCCCN)C(=O)N[C@H](CC(C)C)C(=O)N[C@H](CCCCN)C(N)=O [KLK] (H-[dK][dL][dK][dL][dL][dL][dL][dL][dK][dL][dK]-NH2; N-terminus assumed) | 88.3
* CC(C)C[C@@H](NC(=O)[C@H](N)Cc1c[nH]c2ccccc12)C(=O)N[C@H](Cc1c[nH]c2ccccc12)C(=O)N[C@H](C)C(=O)N[C@H](CC(C)C)C(=O)N[C@H](CC(C)C)C(=O)N[C@H](CCCCN)C(=O)N[C@H](CC(C)C)C(=O)N[C@H](CC(C)C)C(=O)N[C@H](CCCCN)C(=O)N[C@H](CC(C)C)C(=O)N[C@H](CCCCN)C(N)=O [mKLK] (H-[dW][dL][dW][dA][dL][dL][dK][dL][dL][dK][dL][dK]-NH2; N-terminus assumed) | 58.2

* * *

Tested on: S. aureus isolates
Test protocol: Kirby-Bauer disk diffusion antimicrobial susceptibility testing; note: key: R: Resistant; S: Susceptible
Type: cell-based, Staphylococcus aureus
Experimental context: MSSA-1
Description: Three MRSA, two MSSA clinical isolates, and one S. aureus reference strain (ATCC 25923) were investigated in this study. […] The presence of the mecA/mecC gene was studied by PCR in all cefoxitin resistant isolates[42],[43].
Recorded metric: Antimicrobial susceptibility testing

* O=C(N[C@H](CO)[C@H](O)c1ccc([N+](=O)[O-])cc1)C(Cl)Cl | S
* CN(C)[C@@H]1C(O)=C(C(N)=O)C(=O)[C@@]2(O)C(O)=C3C(=O)c4c(O)cccc4[C@@](C)(O)[C@H]3C[C@@H]12 | R
* CN[C@H](CC(C)C)C(=O)N[C@H]1C(=O)N[C@@H](CC(N)=O)C(=O)N[C@H]2C(=O)N[C@H]3C(=O)N[C@H](C(=O)N[C@H](C(=O)O)c4cc(O)cc(O)c4-c4cc3ccc4O)[C@H](O)c3ccc(c(Cl)c3)Oc3cc2cc(c3O[C@@H]2O[C@H](CO)[C@@H](O)[C@H](O)[C@H]2O[C@H]2C[C@](C)(N)[C@H](O)[C@H](C)O2)Oc2ccc(cc2Cl)[C@H]1O | S
* CO/N=C(\C(=O)N[C@@H]1C(=O)N2C(C(=O)[O-])=C(C[N+]3(C)CCCC3)CS[C@H]12)c1csc(N)n1 [FEP, Cefepime] | S

* * *

System: S. aureus isolates
Test protocol: Kirby-Bauer disk diffusion antimicrobial susceptibility testing; note: key: R: Resistant; S: Susceptible
Format: cell-based, Staphylococcus aureus
Experimental context: MSSA-2
Recorded metric: Antimicrobial susceptibility testing

* O=C(N[C@H](CO)[C@H](O)c1ccc([N+](=O)[O-])cc1)C(Cl)Cl | S
* CO[C@@]1(NC(=O)Cc2cccs2)C(=O)N2C(C(=O)O)=C(COC(N)=O)CS[C@@H]21 | S
* CO[C@H]1/C=C/O[C@@]2(C)Oc3c(C)c(O)c4c(O)c(c(/C=N/N5CCN(C)CC5)c(O)c4c3C2=O)NC(=O)/C(C)=C\C=C\[C@H](C)[C@H](O)[C@@H](C)[C@@H](O)[C@@H](C)[C@H](OC(C)=O)[C@@H]1C | S
* CN[C@H](CC(C)C)C(=O)N[C@H]1C(=O)N[C@@H](CC(N)=O)C(=O)N[C@H]2C(=O)N[C@H]3C(=O)N[C@H](C(=O)N[C@H](C(=O)O)c4cc(O)cc(O)c4-c4cc3ccc4O)[C@H](O)c3ccc(c(Cl)c3)Oc3cc2cc(c3O[C@@H]2O[C@H](CO)[C@@H](O)[C@H](O)[C@H]2O[C@H]2C[C@](C)(N)[C@H](O)[C@H](C)O2)Oc2ccc(cc2Cl)[C@H]1O | S
* CC1(C)S[C@@H]2[C@H](NC(=O)[C@H](N)c3ccccc3)C(=O)N2[C@H]1C(=O)O | S
* CNC(C)C1CCC(N)C(OC2C(N)CC(N)C(OC3OCC(C)(O)C(NC)C3O)C2O)O1 (stereo not shown) | S
* CC[C@H]1OC(=O)[C@H](C)[C@@H](O[C@H]2C[C@@](C)(OC)[C@@H](O)[C@H](C)O2)[C@H](C)[C@@H](O[C@@H]2O[C@H](C)C[C@H](N(C)C)[C@H]2O)[C@](C)(O)C[C@@H](C)C(=O)[C@H](C)[C@@H](O)[C@]1(C)O | S
* CN(C)[C@@H]1C(O)=C(C(N)=O)C(=O)[C@@]2(O)C(O)=C3C(=O)c4c(O)cccc4[C@@](C)(O)[C@H]3C[C@@H]12 | R
* CC(=O)NC[C@H]1CN(c2ccc(N3CCOCC3)c(F)c2)C(=O)O1 [LZD, Linezolide] | S
* CO/N=C(\C(=O)N[C@@H]1C(=O)N2C(C(=O)[O-])=C(C[N+]3(C)CCCC3)CS[C@H]12)c1csc(N)n1 [FEP, Cefepime] | S
